Measured values drawn from PubChem BioAssay AID686978 for this set.

test: qHTS for Inhibitors of human tyrosyl-DNA phosphodiesterase 1 (TDP1): qHTS in cells in absence of CPT; conditions: DT40 Tdp1-/- hTDP1 cells, no CPT, ATP luminescence, 48 h; further: nearly all actives have a fitted effect of over 55% in size
Screen size: about 420,000 compounds; about 64,000 (15%) were called active. Another 27% or so got no clear call; they are omitted. The call rests on the fitted dose curve; in most records, active means well fitted inhibition curve with a large enough effect; inconclusive means small, poorly fitted or top-dose-only effect; inactive means flat fitted curve, though single readings scatter. The list is a sample of the results.
Output constraint: value belongs to TRUE (active), FALSE (inactive)

O=C(COC(=O)C1CC2C=CC1C2)Nc1ccccc1 (stereo not drawn) :: FALSE
Cc1cc(F)ccc1NS(=O)(=O)c1ccc(-n2cccn2)cc1 :: TRUE

Next, consider the following compound.
Query: recorded result category for CC(C)c1ccc(NC(=S)NC2CC3C=CC2C3)cc1 (stereo not drawn) in this test
Response: TRUE

###

Assay: qHTS for Inhibitors of human tyrosyl-DNA phosphodiesterase 1 (TDP1): qHTS in cells in absence of CPT; further: nearly all actives have a fitted effect of over 55% in size
Details: DT40 Tdp1-/- hTDP1 cells, no CPT, ATP luminescence, 48 h
Experimental: Human tyrosyl-DNA phosphodiesterase 1 (TDP1) is a novel repair gene, and we propose to use it as a new target for anticancer drug development. […] For the primary screen, Tdp1-/-;hTDP1 cells will be exposed to small molecules in the presence or absence of CPT, and their growth kinetics will be evaluated after 48 hours by measuring ATP activity. […] The hit compounds will then be evaluated in the presence or absence of CPT using Tdp1-/- cells. […]
The whole screen tested about 420,000 compounds, of which about 64,000 (15%) were called active. Inconclusive results (about 27%) are left out. The call rests on the fitted dose curve; in most records, active means well fitted inhibition curve with a large enough effect; inconclusive means small, poorly fitted or top-dose-only effect; inactive means flat fitted curve, though single readings scatter. These entries were drawn from the full list.
Tick one outcome: yes = active, no = inactive

Reference set (3 entries):
CC(C)C(c1nnnn1C(C)(C)C)N1CCN(Cc2cccnc2)CC1 (stereo not drawn) :: no
CC(=O)NCCc1ccc(S(=O)(=O)Nc2ccc(C)c(S(=O)(=O)N3CCOCC3)c2)cc1 :: no
Cc1cc(NC(=O)CN2C(=O)NC(C)(CCc3ccccc3)C2=O)no1 (stereo not drawn) :: no

Query: What outcome does the record of this test show for CSCCC(NC(N)=O)C(=O)N(C)CC(=O)Nc1ccc(C)cc1 (stereo not drawn) ?
Response: no

Query: How did this test come out for C#CC(CCN1CCCCC1)(OC)c1ccccc1 (stereo not drawn) ?
Response: no

Query: Hi, sorry to bother you, what did the test record for CN(C(=O)c1ccccn1)c1nnc(-c2ccccn2)s1 ?
Response: no

Query: So what was the verdict on CN(C)/C=C(\C#N)C(=O)c1cccnc1Oc1cccc(F)c1 in this test?
Response: no

Query: # outcome recorded in this test, key = COc1ccc(Cl)cc1NC(=O)CN1CCN(C(=O)N2CCOCC2)CC1
Response: no

Query: State the result this test recorded for CCOC(=O)c1nn(-c2ccccc2F)c2nc(Nc3ccccc3)cc(=O)n12 .
Response: no

Query: Status in this test for CCn1c(C)nc2cc(C(=O)NNS(=O)(=O)c3ccc(C)cc3C)ccc21 ?
Response: no

###

assay: qHTS for Inhibitors of human tyrosyl-DNA phosphodiesterase 1 (TDP1): qHTS in cells in absence of CPT; settings: DT40 Tdp1-/- hTDP1 cells, no CPT, ATP luminescence, 48 h; further: nearly all actives have a fitted effect of over 55% in size
In all, about 420,000 compounds went through this assay and about 64,000 (15%) were called active. About 27% were inconclusive and are not listed. Not all results are given here.
RECORDED_ENDPOINT: outcome

C=CCOc1ccc(C2/C(=C(\O)c3c(C)[nH]c(C(=O)OC)c3C)C(=O)C(=O)N2CCN(C)C)cc1 (stereo not drawn) :: inactive
Cn1c(Nc2ccccc2)cc(=O)n(C)c1=O :: inactive
CN(C(=O)CSc1nnc(-c2ccc(C(C)(C)C)cc2)n1C)C1CCS(=O)(=O)C1 (stereo not drawn) :: inactive
